All figures here come from ChEMBL document CHEMBL3507680.

Give measured cytotoxicity at 70.5 h for each item. Keep answers brief.
assay: Human HepG2 cell viability assay in 384 well format; assay type: toxicity, cell-based; design: dose 125 nL, time 70.5 hour; concentration not given beside the values; conditions: HepG2 cells, read-out: Inhibition
Answers are plain numbers, in %.

Reference set, count: 2
compound="Cc1cc(C)n(CC2CN(CC(=O)NC(C3CC3)C3CC3)CCO2)n1 (stereo unspecified)" result_unit=% measured_value=-4.44
compound="O=C(CCOc1ccccc1)N1CCCC(c2ncc[nH]2)C1 (stereo unspecified)" result_unit=% measured_value=-20.2

Consider the following items and state reported cytotoxicity at 70.5 h for each.
1. CC(C)S(=O)(=O)c1nnc(CCNC(=O)OC(C)(C)C)o1
2. CO[C@H]1CN(C(=O)c2ccc(-c3ccccc3)[nH]2)CC[C@H]1N
3. CN(C)C(=O)N1CCCC(C(=O)N(C)CCCc2cnn(C)c2)C1 (stereo unspecified)
4. Cn1ccnc1CNC1CCCOc2c1ccc1ccccc21 (stereo unspecified)
5. CS(=O)(=O)N1CCCN(CCCSCc2ccccc2)CC1
6. O=C(Nc1ccccc1)N1CCn2nnc(COc3cccnc3)c2C1
7. CN(C)C(=O)COC1COC2(CCN(c3ncccn3)CC2)C1 (stereo unspecified)

Solution:
[29.5, -10.1, -11.5, -6.96, -8.27, 1.76, -7.32]

Consider the following items and state reported cytotoxicity at 70.5 h for each.
1. CC(C)n1[nH]c(=O)c2c1NC(=O)CC2c1ccc2ncccc2c1 (stereo unspecified)
2. Cc1cccc(-c2nc(C)nn2CC(=O)NC2CCCC2)c1

Solution:
1: 5.19; 2: 3.32

* * *

experiment: Human HepG2 cell viability assay in 384 well format; format: toxicity, cell-based; design: dose 125 nL, time 70.5 hour; concentration not given beside the values; conditions: HepG2 cells, read-out: Inhibition
readout type: cytotoxicity at 70.5 h (%)
Answers are plain numbers, in %.

Consider the following items and state reported cytotoxicity at 70.5 h for each.
1. CC(Cn1cccn1)NCC(=O)NC1(C#N)CCCCC1 (stereo not given)
2. O=C(C1CCOc2ccccc21)N1CCOc2cccc(F)c21 (stereo not given)
3. CCn1ncc(S(=O)(=O)NC(C)c2cc(OC)ccc2OC)c1C (stereo not given)
4. Cc1cc(C(=O)N2CCCCC2C)ccc1NCC(=O)N1CCOCC1 (stereo not given)
5. Cc1cnn(CC2CCCCN2C(=O)Cc2c(C)noc2C)c1 (stereo not given)
6. CC1c2ccsc2CCN1Cc1cc2c(cc1O)OCO2 (stereo not given)
7. COCCCNC(=O)NCc1nc(C)c(C)o1
8. O=C(NCCOC1CCCCC1)c1ccc(-c2ccco2)[nH]c1=O

Solution:
1. 21.3
2. 4.13
3. 20.2
4. 26.9
5. -9.25
6. -5.73
7. -7.01
8. 15.1

* * *

Give measured cytotoxicity at 70.5 h for each item. Keep answers brief.
experiment: Human HepG2 cell viability assay in 384 well format; type: toxicity, cell-based; set-up: dose 125 nL, time 70.5 hour; concentration not given beside the values; settings: HepG2 cells, read-out: Inhibition
Give bare numbers, in %.

compound=Cc1nc(CN2CCO[C@@H]3CN(Cc4cccs4)C[C@@H]3C2)cs1 measured_value=-4.54
compound=Cc1ccc(-c2nc(CN3CCn4c(nnc4C4CC4)C3)co2)c(C)c1 measured_value=-5.17
compound=Cc1ccc(N2CCc3ncnc(C)c3CC2)nn1 measured_value=18.8
compound=Cc1ccc(C(=O)N2CCO[C@H]3[C@H](OCc4ccccn4)CC[C@@H]32)o1 measured_value=-3.92
compound=CN(C)C(=O)c1cccc(CN2CCN(CCO)CC2)c1 measured_value=38.5
compound="CNc1cc(N2CCC(O)(CNC(=O)c3ccc(C)nc3)C2)ncn1 (stereo unspecified)" measured_value=-6.58
compound=Cc1cc(C)c2nc(CN3CCC(N4CCOCC4)CC3)cc(O)c2c1 measured_value=-0.693
compound=CN(C)Cc1csc(-c2nccn2Cc2ccc(C(=O)O)cc2)c1 measured_value=19.3

Consider the following items and state reported cytotoxicity at 70.5 h for each.
1. COCCN1CCCCC12CC(=O)N(c1ccccc1OC)C2 (stereo unspecified)
2. Cc1ccc(CN(C)C(=O)CN2CCCC2c2cnn(C)c2)o1 (stereo unspecified)
3. Cn1nc(Cn2cccn2)c2c1CN(Cc1ccoc1)C2

Solution:
-2.67
16.6
-3.73
